target: Na^+,K^+ -ATPase (Homo sapiens, UniProt P05023); construct: Na^+,K^+ -ATPase receptor purified according to Jorghensen; from tissue; assay: inhibition of the activity of the purified Na+,K+-ATPase measured as % of hydrolysis of 32P-ATP; assay type: biochemical; settings: purified Na+,K+-ATPase, 32P-ATP hydrolysis; read-out: Inhibitory Activity log IC50 (converted)
readout type: IC50 (µM)
Give bare numbers, in µM.

>>> endpoint_value("COc1ccc([C@@]2(O)CC[C@]3(O)[C@@H]4CCC5=C[C@@H](O)CC[C@]5(C)[C@H]4CC[C@]23C)cc1")
39.8
>>> endpoint_value("C[C@]12CC[C@H]3[C@@H](CCC4=C[C@@H](SCCCN)CC[C@@]43C)[C@@]1(O)CC[C@]2(O)c1ccoc1")
12.6
>>> endpoint_value("C[C@]12CC[C@H]3[C@@H](CCC4=C[C@@H](OCCN5CCCC5)CC[C@@]43C)[C@@]1(O)CC[C@]2(O)c1ccoc1")
25.1
>>> endpoint_value("C[C@]12CC[C@H](O)C[C@@H]1CC[C@@H]1[C@@H]2CC[C@]2(C)[C@@](O)(c3ccccc3)CC[C@]12O")
79.4
>>> endpoint_value("C[C@]12CC[C@H](O)C[C@@H]1CC[C@@H]1[C@@H]2CC[C@]2(C)[C@@](O)(c3ccsc3)CC[C@]12O")
63.1

For every item in the list below, what is its measured IC50?
1. C[C@]12CC[C@H]3[C@@H](C=CC4=C[C@@H](O)CC[C@@]43C)[C@@]1(O)CC[C@]2(O)c1ccccc1
2. C[C@]12CC[C@H]3[C@@H](CCC4=C[C@@H](OCC(O)CO)CC[C@@]43C)[C@@]1(O)CC[C@]2(O)c1ccoc1 (stereo partly shown)

1. 31.6
2. 79.4

For every item in the list below, what is its measured IC50?
1. C[C@]12CC[C@H]3[C@@H](CCC4=C[C@@H](O)CC[C@@]43C)[C@@]1(O)CC[C@]2(O)c1ccoc1
2. C[C@]12CC[C@H]3[C@@H](CC=C4C[C@@H](O)CC[C@@]43C)[C@@]1(O)CC[C@]2(O)c1nccs1
3. C[C@]12CC[C@H]3[C@@H](CCC4=C[C@@H](OCCO)CC[C@@]43C)[C@@]1(O)CC[C@]2(O)c1ccoc1

50.1
63.1
39.8

---

target: Na^+,K^+ -ATPase (Homo sapiens); construct: Na^+,K^+ -ATPase receptor purified according to Jorghensen; from tissue; test: displacement of the specific 3H-ouabain binding from the purified Na+,K+-ATPase receptor; conditions: 3H-ouabain displacement, purified Na+,K+-ATPase; read-out: Binding ^3 H-Ouab. Displacement log IC50 (converted)
readout type: IC50 (µM)
Answers are plain numbers, in µM.

Study these solved cases before continuing.
>>> endpoint_value("C[C@]12CC[C@H]3[C@@H](CCC4=C[C@@H](OCC(N)CN)CC[C@@]43C)[C@@]1(O)CC[C@]2(O)c1ccoc1 (stereo partly drawn)")
3.98
>>> endpoint_value("C[C@]12C=C[C@H](O)C[C@@H]1CC[C@@H]1[C@@H]2CC[C@]2(C)[C@@](O)(c3ccoc3)CC[C@]12O")
3.98

Param readout= IC50; system= Na^+,K^+ -ATPase (Homo sapiens); entry= C[C@]12CC[C@H]3[C@@H](CCC4=C[C@@H](OCC(O)CO)CC[C@@]43C)[C@@]1(O)CC[C@]2(O)c1ccoc1 (stereo partly drawn) ; returns value.
3.98

---

Can you tell me IC50 for the items I'm about to list?
target: Na^+,K^+ -ATPase (Homo sapiens, UniProt P05023); construct: Na^+,K^+ -ATPase receptor purified according to Jorghensen; from tissue; experiment: inhibition of the activity of the purified Na+,K+-ATPase measured as % of hydrolysis of 32P-ATP; type: biochemical; details: purified Na+,K+-ATPase, 32P-ATP hydrolysis; read-out: Inhibitory Activity log IC50 (converted)
One number for each entry, in µM.

>>> endpoint_value("C[C@]12CC[C@H](O)C[C@@H]1CC[C@@H]1[C@@H]2CC[C@]2(C)[C@@](O)(c3cccnc3)CC[C@]12O [Comp. I - bl]")
63.1
>>> endpoint_value("C[C@]12CC[C@H]3[C@@H](CCC4=C[C@@H](O)CC[C@@]43C)[C@@]1(O)CC[C@]2(O)c1ccccc1 [Comp. I - ac, 17β-Phenylandrost-4-ene-3β,14β,17α-triol]")
79.4

Now look at this one.
Which IC50 reading was recorded for the molecule CN(C)c1ccc([C@@]2(O)CC[C@]3(O)[C@@H]4CC=C5C[C@@H](O)CC[C@]5(C)[C@H]4CC[C@]23C)cc1 [Comp. I - bp] ?
50.1
